- ASSAYED SYSTEM: Cloned human M1 receptor (CHRM1) (Homo sapiens, UniProt P11229)
- Construct: expressed in transfected cells; host or cells: HEK293
- Sequence (P11229 whole entry): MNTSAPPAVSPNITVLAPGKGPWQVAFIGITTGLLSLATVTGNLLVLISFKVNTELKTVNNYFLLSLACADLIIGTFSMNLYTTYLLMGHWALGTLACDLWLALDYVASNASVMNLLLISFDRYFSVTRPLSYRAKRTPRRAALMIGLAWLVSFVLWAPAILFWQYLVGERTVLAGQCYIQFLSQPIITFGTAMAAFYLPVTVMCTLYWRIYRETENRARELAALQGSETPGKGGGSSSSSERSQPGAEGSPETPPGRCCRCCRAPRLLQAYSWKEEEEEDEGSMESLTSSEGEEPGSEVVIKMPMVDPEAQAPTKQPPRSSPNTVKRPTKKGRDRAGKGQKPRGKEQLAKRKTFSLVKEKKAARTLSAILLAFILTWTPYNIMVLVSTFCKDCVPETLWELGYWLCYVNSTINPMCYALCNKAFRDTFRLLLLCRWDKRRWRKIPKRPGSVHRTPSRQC
- PROTOCOL TEXT: CHRM1 Ca++ Flux Assay (HEK293 M1 cells, agonist mode)
- Format: cell-based
- SETUP CONDITIONS: Percent Activity (PA), read-out: M1 FDSS PA %
REPORTED METRIC: Emax (%)

Examples with answers:
[
  {
    "COMPOUND": "c1ccc(C2CCN([C@@H]3COC4(C3)CN(c3nnco3)C4)CC2)c(-c2ncco2)c1 [Example 1X]",
    "ASSAYED SYSTEM": "Cloned human M1 receptor (CHRM1) (Homo sapiens, UniProt P11229)",
    "Emax [%]": 99
  },
  {
    "COMPOUND": "Fc1cc(F)c(OC2COC2)c(C2CCN([C@@H]3COC4(C3)CN(c3nnco3)C4)CC2)c1 [Example 2EE]",
    "ASSAYED SYSTEM": "Cloned human M1 receptor (CHRM1) (Homo sapiens, UniProt P11229)",
    "Emax [%]": 95
  },
  {
    "COMPOUND": "CC(C)(C#N)COc1ccc(F)cc1C1CCN([C@@H]2COC3(C2)CN(c2nnco2)C3)CC1 [Example 1E]",
    "ASSAYED SYSTEM": "Cloned human M1 receptor (CHRM1) (Homo sapiens, UniProt P11229)",
    "Emax [%]": 84
  },
  {
    "COMPOUND": "Fc1ccc(OC2CC3(COC3)C2)c(C2CCN([C@@H]3COC4(C3)CN(c3ncco3)C4)CC2)c1 [Example 4G]",
    "ASSAYED SYSTEM": "Cloned human M1 receptor (CHRM1) (Homo sapiens, UniProt P11229)",
    "Emax [%]": 62
  },
  {
    "COMPOUND": "CC(C)(O)COc1ccc(F)cc1C1CCN([C@@H]2COC3(C2)CN(c2nncs2)C3)CC1 [Example 5U]",
    "ASSAYED SYSTEM": "Cloned human M1 receptor (CHRM1) (Homo sapiens, UniProt P11229)",
    "Emax [%]": 75
  },
  {
    "COMPOUND": "c1ccc(C2CCN([C@@H]3COC4(C3)CN(c3nnco3)C4)CC2)c(O[C@@H]2CCOC2)c1 [Example 1O]",
    "ASSAYED SYSTEM": "Cloned human M1 receptor (CHRM1) (Homo sapiens, UniProt P11229)",
    "Emax [%]": 69
  },
  {
    "COMPOUND": "Fc1cc(O[C@@H]2CCOC2)c(C2CCN([C@@H]3COC4(C3)CN(c3nncs3)C4)CC2)cc1F [Example 5M]",
    "ASSAYED SYSTEM": "Cloned human M1 receptor (CHRM1) (Homo sapiens, UniProt P11229)",
    "Emax [%]": 66
  },
  {
    "COMPOUND": "Fc1ccc(OC[C@H]2CCOC2)c(C2CCN([C@@H]3COC4(C3)CN(c3nncs3)C4)CC2)c1 [Example 5X]",
    "ASSAYED SYSTEM": "Cloned human M1 receptor (CHRM1) (Homo sapiens, UniProt P11229)",
    "Emax [%]": 75
  }
]

A: Fc1ccc(OC[C@@H]2COCCO2)c(C2CCN([C@@H]3COC4(C3)CN(c3nnco3)C4)CC2)c1 [Example 1F]
B: Fc1ccc(OC[C@H]2CCOC2)c(C2CCN([C@@H]3COC4(C3)CN(c3nnco3)C4)CC2)c1 [Example 1I]
C: Fc1ccc(OCC2C3COCC32)c(C2CCN([C@@H]3COC4(C3)CN(c3nnco3)C4)CC2)c1 (stereo partly shown) [Example 2Z]
Incoming: Put the items in sequence by Emax, from largest down. Could you list the labels in the order requested?
Outgoing: A, B, C
(A: 83%, B: 54%, C: 11%)

1: COc1ccccc1C1CCN([C@@H]2COC3(C2)CN(c2nncs2)C3)CC1 [Example 5R]
2: OC1(COc2ccc(F)cc2C2CCN([C@@H]3COC4(C3)CN(c3nnco3)C4)CC2)COC1 [Example 2U]
Incoming: Consider 1 and 2 . Which of these has its Emax at a higher number? In your reply, give the label of the chosen option.
Outgoing: 2

Sourced from patent US11485742B2
